# Subject of test: Isoform Tau-F of Microtubule-associated protein tau (Human, UniProt P10636)
# Sequence (P10636 as listed by the source): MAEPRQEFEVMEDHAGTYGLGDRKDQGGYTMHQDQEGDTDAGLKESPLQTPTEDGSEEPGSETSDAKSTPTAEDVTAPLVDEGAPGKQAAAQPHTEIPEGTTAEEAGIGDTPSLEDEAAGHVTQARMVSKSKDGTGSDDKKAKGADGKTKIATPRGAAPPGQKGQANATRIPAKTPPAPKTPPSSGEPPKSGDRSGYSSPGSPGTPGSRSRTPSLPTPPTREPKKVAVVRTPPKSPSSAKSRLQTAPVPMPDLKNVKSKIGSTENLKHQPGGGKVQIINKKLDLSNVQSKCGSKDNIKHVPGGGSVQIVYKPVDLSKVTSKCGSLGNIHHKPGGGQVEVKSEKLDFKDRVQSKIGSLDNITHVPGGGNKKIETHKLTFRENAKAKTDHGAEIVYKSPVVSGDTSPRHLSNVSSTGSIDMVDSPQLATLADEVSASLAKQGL
# Protocol details: Tau Protein Assay
# Test settings: pH 7.4
Measured parameter: IC50 (nM)
Reply with just the number (in nM).

Completed entries (count: 5):
Compound | Readout number
O=C1/C(=C/c2ccc(-c3ccc(-n4cccc4)cc3)o2)SC(=S)N1Cc1nc2ccccc2[nH]1 [Rhodanines, 29A] | 540
O=C1/C(=C/c2cccc(-c3ccc(-c4ccccc4)cc3)c2)SC(=S)N1CCc1c[nH]cn1 [Rhodanines, 57B] | 9380
O=C1/C(=C/c2ccc(-c3ccc(-c4ccccc4)cc3)o2)SC(=S)N1Cc1nc2ccccc2[nH]1 [Rhodanines, 41A] | 1400
O=C(O)CCN1C(=O)/C(=C/c2ccc(-c3ccc(-n4cccc4)cc3)o2)SC1=S [Rhodanines, 24A] | 240
O=C(O)Cc1ccc(CN2C(=O)/C(=C/c3ccc(-c4ccc(-c5ccccc5)cc4)cc3)SC2=S)cc1 [Rhodanines, 59B] | 14800

Q. Provide only the value of recorded IC50 for O=C(O)CCCN1C(=O)/C(=C/c2ccc(-c3cccc(Cl)c3)o2)SC1=S [Rhodanines, 40A]
A. 1220

Q. Note IC50 for the compound shown: O=C(O)CCN1C(=O)/C(=C/c2ccc(-c3cccc(Cl)c3)o2)SC1=S [Rhodanines, 28A]
A. 470

* * *

# Subject of test: Isoform Tau-F of Microtubule-associated protein tau (Human, UniProt P10636)
# Protocol details: Tau Protein Assay
# Test settings: pH 7.4
Measured parameter: pIC50
Kindly note that pIC50 refers to -log10 of the concentration in mol/L and answer with the value alone.

Take a look at these entries with their results.
Molecule | Subject of test | pIC50
CNc1ccc2nc3ccc(=[N+](C)C)cc-3sc2c1 | Isoform Tau-F of Microtubule-associated protein tau (Human, UniProt P10636) | 5.89
O=C(O)Cc1ccc(CN2C(=O)/C(=C/c3ccc(-c4ccc(-n5cccc5)cc4)o3)SC2=S)cc1 [Rhodanines, 35A] | Isoform Tau-F of Microtubule-associated protein tau (Human, UniProt P10636) | 6.11
O=C1/C(=C/c2cccc(-c3ccc(-c4ccccc4)cc3)n2)SC(=S)N1CCc1c[nH]cn1 [Rhodanines, 63B] | Isoform Tau-F of Microtubule-associated protein tau (Human, UniProt P10636) | 3.93
O=C1/C(=C/c2ccc(-c3cccc(Cl)c3)o2)SC(=S)N1Cc1nc2ccccc2[nH]1 [Rhodanines, 32A] | Isoform Tau-F of Microtubule-associated protein tau (Human, UniProt P10636) | 6.17

Consider the record given below.
Q. Would you please give the reported pIC50 of CN(C)c1ccc(C(=C2C=CC(=[N+](C)C)C=C2)c2ccccc2)cc1 with Isoform Tau-F of Microtubule-associated protein tau (Human, UniProt P10636)?
A. 6.28

* * *

# Subject of test: Isoform Tau-F of Microtubule-associated protein tau (Human, UniProt P10636)
# Protocol details: Tau Protein Assay
# Test settings: pH 7.4
pIC50: −log10 of the molar value.
Consider the following partition of reported pIC50 into named classes: b0: < 5; b1: ≥ 5 and < 6; b2: ≥ 6

Field: example entries. Status: answers known.
Compound | Assigned class
O=C(O)Cc1ccc(CN2C(=O)/C(=C/c3cccc(-c4ccc(-c5ccccc5)cc4)n3)SC2=S)cc1 [Rhodanines, 62B] | b0
O=C1/C(=C/c2ccc(-c3ccc(-n4cccc4)cc3)o2)SC(=S)N1CCc1c[nH]cn1 [Rhodanines, 43A] | b1
O=C(O)CCN1C(=O)/C(=C/c2ccc(-c3ccc(-c4ccccc4)cc3)cc2)SC1=S [Rhodanines, 60B] | b0
C/N=c1\ccc2nc3ccc(N)cc3sc-2c1 | b0
C[N+](C)=c1ccc2nc3ccc(N)cc3sc-2c1 | b0

Q. Given O=C1C=CC(=C(c2ccc(O)cc2)c2ccc(O)cc2)C=C1 , name the class its pIC50 places it in.
A. b0

Q. Exam item: assign O=C(O)CN1C(=O)/C(=C/c2ccc(-c3cccc(Cl)c3)o2)OC1=S [Rhodanines, 46A] to the correct category.
A. b1

Q. Class (by measured pIC50) for CCN1/C(=C/C(C)=C/c2sc3ccccc3[n+]2CC)Sc2ccccc21
A. b2

Q. Determine which band this compound sits in: O=C(O)CCCCN1C(=O)/C(=C/c2cccc(-c3ccc(-c4ccccc4)cc3)n2)SC1=S [Rhodanines, 52B]
A. b1

Q. // return the class label for O=C(O)CCCN1C(=O)/C(=C/c2cccc(-c3ccc(-c4ccccc4)cc3)n2)SC1=S [Rhodanines, 51B]
A. b1

Q. Which class does CCC(/C=C1\Sc2ccc(OC)cc2N1CCO)=C\c1sc2ccc(OC)cc2[n+]1CCO fall in?
A. b2

Q. Pick a category. Item: O=C(O)Cc1ccc(CN2C(=O)/C(=C/c3ccc(-c4ccc(-c5ccc(C(=O)O)o5)cc4)o3)SC2=S)cc1 [Rhodanines, 30A]
A. b2

* * *

# Subject of test: Isoform Tau-F of Microtubule-associated protein tau (Human, UniProt P10636)
# Protocol details: Tau Protein Assay
# Test settings: pH 7.4
Listed below: IC50 values for each entry.
Could you give me the number in nM? Just the number is fine.

These solved cases illustrate the format of a correct answer.
Molecule | Measured parameter | Readout number
O=C(O)CN1C(=O)/C(=C/c2ccc(-c3cccc(Cl)c3)o2)SC1=S [Rhodanines, 36A] | IC50 | 820
CCCN1/C(=C/C=C/C2=[N+](CCC)c3ccccc3C2(C)C)C(C)(C)c2ccccc21 | IC50 | 2570
O=C(O)CCN1C(=O)/C(=C/c2ccc(-c3ccc(-c4ccc(C(=O)O)o4)cc3)o2)SC1=S [Rhodanines, 21A] | IC50 | 170
O=C(O)CCCCN1C(=O)/C(=C/c2ccc(-c3ccc(-c4ccccc4)cc3)o2)SC1=S [Rhodanines, 25A] | IC50 | 240
C1=C2\Sc3ccccc3N2CCCC[n+]2c(sc3ccccc32)/C=C/C=C2\Sc3ccccc3N2CCCC[n+]2c(sc3ccccc32)/C=C/1 | IC50 | 120

Q. With Isoform Tau-F of Microtubule-associated protein tau (Human, UniProt P10636) as the test system, provide measured IC50 for this molecule: O=C(O)Cc1ccc(CN2C(=O)/C(=C/c3cccc(-c4ccc(-c5ccccc5)cc4)c3)SC2=S)cc1 [Rhodanines, 64B]
A. 146000

Q. Specify IC50 for O=C(O)CCCN1C(=O)/C(=C/c2ccc(-c3ccc(-n4cccc4)cc3)o2)SC1=S [Rhodanines, 23A] , system Isoform Tau-F of Microtubule-associated protein tau (Human, UniProt P10636).
A. 230

Q. State IC50 (Isoform Tau-F of Microtubule-associated protein tau (Human, UniProt P10636)) of O=C(O)c1ccc(-c2ccc(-c3ccc(/C=C4\SC(=S)N(CCc5c[nH]cn5)C4=O)o3)cc2)o1 [Rhodanines, 34A] .
A. 750

Q. Under Isoform Tau-F of Microtubule-associated protein tau (Human, UniProt P10636), report IC50 for O=C(O)CCCCN1C(=O)/C(=C/c2ccc(-c3ccc(-c4ccc(C(=O)O)o4)cc3)o2)SC1=S [Rhodanines, 26A]
A. 260

* * *

# Subject of test: Isoform Tau-F of Microtubule-associated protein tau (Human, UniProt P10636)
# Protocol details: Tau Protein Assay
# Test settings: pH 7.4
Measured parameter: log10(IC50) (log10 of the value in nM)
Plainly stated, the numbers are log10 of IC50 given in nM.

Compound | log10(IC50)
O=C(O)CCCN1C(=O)/C(=C/c2ccc(-c3ccc(-c4ccccc4)cc3)o2)SC1=S [Rhodanines, 37A] | 2.97
O=C1/C(=C/c2ccc(-c3ccc(-c4ccccc4)cc3)cc2)SC(=S)N1CCc1c[nH]cn1 [Rhodanines, 58B] | 4.09
O=C(O)CCN1C(=O)/C(=C/c2ccc(-c3ccc(-c4ccccc4)cc3)o2)SC1=S [Rhodanines, 20A] | 2.23
CN(C)c1ccc(C(=C2C=CC(=[N+](C)C)C=C2)c2ccc(N(C)C)cc2)cc1 | 2.69

Q. Item O=C(O)CCCCN1C(=O)/C(=C/c2ccc(-c3ccc(-n4cccc4)cc3)o2)SC1=S [Rhodanines, 22A] : provide log10(IC50)
A. 2.32

* * *

# Subject of test: Isoform Tau-F of Microtubule-associated protein tau (Human)
# Protocol details: Tau Protein Assay
# Test settings: pH 7.4
Measured parameter: IC50 (nM)
Your answer is read as nM, so omit the unit and give the number.

Q. For O=C(O)CCN1C(=O)C(=CC2CCC(c3ccc(-c4ccccc4)cc3)C2)SC1=S (stereo not given) [Rhodanines, 55A] , write its IC50.
A. 7920

Q. Return value of IC50 for input O=C(O)CCN1C(=O)/C(=C/c2ccc(-c3cccc(Cl)c3)s2)SC1=S [Rhodanines, 38A] , no commentary.
A. 970

* * *

# Subject of test: Isoform Tau-F of Microtubule-associated protein tau (Human)
# Protocol details: Tau Protein Assay
# Test settings: pH 7.4
Measured parameter: pIC50
Units for pIC50: none; it is -log10 of a concentration expressed in mol/L.

Compound | Measured parameter | Readout number
O=C(O)Cc1ccc(CN2C(=O)/C(=C/c3ccc(-c4cccc(Cl)c4)o3)SC2=S)cc1 [Rhodanines, 44A] | pIC50 | 5.71
O=C(O)CC(C(=O)O)N1C(=O)/C(=C/c2ccc(-c3cccc(Cl)c3)o2)SC1=S (configuration not stated) [Rhodanines, 27A] | pIC50 | 6.38
O=C(O)CN1C(=O)/C(=C/c2ccc(-c3cccc(Cl)c3)o2)NC1=S [Rhodanines, 53A] | pIC50 | 5.21

Q. Give recorded pIC50. O=C1/C(=C/c2ccc(-c3ccc(-c4ccccc4)cc3)o2)SC(=S)N1CCc1c[nH]cn1 [Rhodanines, 54A]
A. 5.11

Q. Supply pIC50 value. Item: O=C(O)CCN1C(=O)/C(=C/c2ccc(-c3ccccc3Cl)o2)SC1=S [Rhodanines, 31A]
A. 6.19
